Let's look at some IC50 data for Serine/threonine-protein kinase ATR (Homo sapiens, UniProt Q13535) that I collected from the literature.
Quick note: give the figure in nM, leave out the unit.

Known results for compounds:
1) Cc1c(-c2cc(N3CCOC[C@H]3C)nc(-c3cc(F)cc4[nH]ccc34)n2)c(C(F)(F)F)nn1C1CCNCC1 = 5
2) CCN1CCN(S(=O)(=O)c2ccc(C)c(-c3cc(N4CCOC[C@H]4C)nc(-c4ccnc5[nH]ccc45)n3)c2)CC1 = 63
3) CCn1nccc1-c1cc(N2CCOC[C@H]2C)nc(-c2ccnc3[nH]ccc23)n1 = 83
4) CNc1nc2ccccc2n1-c1nc(-c2c(C(F)(F)F)nn(C3CCNCC3)c2C)cc(N2CCOC[C@H]2C)n1 = 9

# value lookup — system Serine/threonine-protein kinase ATR (Homo sapiens, UniProt Q13535), readout IC50, item `Cc1ccc(S(C)(=O)=O)cc1-c1cc(N2CCOC[C@H]2C)nc(-c2ccnc3[nH]ccc23)n1`
31

# value lookup — system Serine/threonine-protein kinase ATR (Homo sapiens, UniProt Q13535), readout IC50, item `Cc1nn(CC2CNC2)c(C)c1-c1nc(-c2ccnc3[nH]ccc23)cc(N2CCOC[C@H]2C)n1`
340

# value lookup — system Serine/threonine-protein kinase ATR (Homo sapiens, UniProt Q13535), readout IC50, item `C[C@@H]1COCCN1c1nc(-c2ccnc3[nH]ccc23)nc2c1ccn2S(C)(=O)=O`
1.6
